B1: LOXL2 (parent)
chain: FSPDGPSRFRKAYKPEQPLVRLRG

variants of: B1; assay: protein stability index of a GFP-peptide fusion (GPS, HEK-293T) (PSI 1-6); higher = more stable; details: c terminus: a fixed tail appended;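 note: lentivirally expressed fusions sorted by FACS into six bins by GFP to DsRed ratio, PSI derived from sequencing read proportions per bin multiplied by bin number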
Categories are defined by ranges of protein stability index, namely low value: < 2; medium value: ≥ 2 and < 3; high value: ≥ 3

{"columns": ["variant id", "group label"],
 "data": [
  ["Q17E", "high value"]
]}

Exercise: Sort `R23P` into one of the categories.
Solution: low value

Exercise: State the class of the variant shown: `Y13R`
Solution: medium value

Exercise: # classify by protein stability index band: `L19Q`
Solution: medium value

The reported measurements were obtained from the supplement of paper PMC10567573.
